Tested on: SN12C
Procedure Details: NCI tumour cell line growth inhibition, 48 h
Activity calls are given as the source filed them. No stated cut-off is given here; in the data, active = GI50 up to about 1.1 µM and inactive = higher.
Give your call using only these classes: active, inactive

Solved cases (5 shown):
Compound: CN(C)c1ccc(C2SCC(=O)N2c2nc3cc4sc(N5C(=O)CSC5c5ccc(N(C)C)cc5)nc4cc3s2)cc1 (stereo not drawn)
Class Label: inactive
--
Compound: C[C@]1(CO)[C@H]2CC[C@@]34C=C[C@@](CO)(CC[C@H]3[C@]2(C)CC[C@H]1O)C4
Class Label: inactive
--
Compound: NC(=O)C(=O)N/N=C(\CC1(O)C(=O)Nc2ccccc21)c1ccc2ccccc2c1 (stereo not drawn)
Class Label: inactive
--
Compound: COC(=O)CCc1cc(O)c2c(c1)C(C(=O)OC)C(c1ccc(O)c(O)c1)O2 (stereo not drawn)
Class Label: inactive
--
Compound: COC(=O)c1ccc(/C=C/S(=O)(=O)c2ccccc2)cc1
Class Label: inactive

Which result was noted for this compound in the test: O=C(c1c(F)c(F)c(F)c(F)c1F)n1c(=S)n(C(=O)c2c(F)c(F)c(F)c(F)c2F)c2ccccc21
inactive

I'd appreciate the recorded outcome for CCCNC(=O)C(C)C1CCC2(C)C=CC(=O)C(C)=C2C1O (stereo not drawn) from this test.
inactive

----------
System: UO-31
Procedure Details: NCI tumour cell line growth inhibition, 48 h
The source made the active and inactive calls. Rule as the data show it: active = GI50 up to about 1.1 µM and inactive = higher.
Allowed answers: 1 (active), 0 (inactive)

Molecule: COC(=O)C1(F)C(=O)NC(=O)NC1O (stereo not drawn)
Class Label: 0

What is the recorded call for this molecule in the test? CC(=O)NC(CCCNC(=O)N(C)N=O)C(=O)NCc1ccccc1 (stereo not drawn)
0

Dear colleague, could you share the recorded outcome for CC1OC(=O)C(O)=C1O (stereo not drawn) when you have a moment?
0

Call for entry Cc1c(Cl)c(S(N)(=O)=O)cc(S(N)(=O)=O)c1NC(=O)c1ccc(Cl)cc1 :
0

Entry C=C(Cl)C(Br)(CCl)CCC(Br)C(C)(C)Cl (stereo not drawn) : call = ?
0

How did this test come out for Nc1ccc(-c2nn3c(COc4ccc(Cl)cc4)nnc3s2)cc1 ?
0

Fill in: this test's call for COC(=O)C1C(=O)O[C@@H](c2ccc(OC)cc2OC)C1C(=O)OC (stereo partly drawn) is ___
0

Outcome logged for CC12CCC3C(CCC4=CC(O)CCC43C=O)C1(O)CCC2c1ccc(=O)oc1 (stereo not drawn) in this assay:
1

Dear all, I need the recorded test outcome for NC(=O)C(=O)N/N=C(\CC1(O)C(=O)Nc2ccccc21)c1ccc2ccccc2c1 (stereo not drawn) , thank you.
0

----------
Tested on: SK-MEL-28
Procedure Details: NCI tumour cell line growth inhibition, 48 h
Activity calls are given as the source filed them. Rule as the data show it: active = GI50 up to about 1.1 µM and inactive = higher.
Property Label: GI50

Past entries and their recorded results:
Compound: C=C1C(=O)OC2C1CCC(=C)C1CC(O)C(=C)C12 (configuration not stated)
GI50: 14.4 µM (inactive)
--
Compound: Cc1ccc2c(C)c3ccc4ccccc4c3c[n+]2c1.[O-][Cl+3]([O-])([O-])[O-]
GI50: 15.3 µM (inactive)
--
Compound: COc1ccc(C2c3cc4c(cc3OC(N3CCOCC3)C2C)OCO4)cc1OC (configuration not stated)
GI50: > 50.5 µM (inactive)
--
Compound: CC1CCC(=O)C(C(O)CC2CC(=O)N(c3ccccc3)C(=O)C2)C1 (configuration not stated)
GI50: > 100 µM (inactive)
--
Compound: COc1ccc(-c2oc3cc(-c4cc5oc(-c6ccc(OC)cc6)c(-c6ccc(OC)cc6)c5cc4OC)c(OC)cc3c2-c2ccc(OC)cc2)cc1
GI50: > 100 µM (inactive)
--
Compound: CC(=O)n1nnc2ccc([N+](=O)[O-])cc21
GI50: > 100 µM (inactive)

Then there is this compound:
Look at this compound and give its reported GI50. CC(=O)NC(CCCNC(=O)N(C)N=O)C(=O)NCc1ccccc1 (configuration not stated)
> 100 µM (inactive)

----------
Test system: HCC 2998
Procedure Details: NCI tumour cell line growth inhibition, 48 h
Activity calls are given as the source filed them. Cut-off read from the data, not from the text of the source: active = GI50 up to about 1.1 µM and inactive = higher.
Your response should consist of one outcome taken from active, inactive

These solved cases illustrate the format of a correct answer.
Compound: COc1ccc(NC2Oc3cc4c(cc3C(c3cc(OC)c(O)c(OC)c3)C2C)OCO4)cc1 (stereo not given)
Class Label: inactive
--
Compound: CCN(N=O)C1C2(CCCC2)NC(=O)C12CCCC2 (stereo not given)
Class Label: inactive

Please share the test call associated with NC(=O)c1[nH]nc(C2OC(CO)C(O)C2O)c1O (stereo not given) .
inactive

I'd appreciate the recorded outcome for Cn1ncc2c(Nc3cccc(Cl)c3)nc(Nc3cccc(Cl)c3)nc21 from this test.
inactive

I would be grateful if you could indicate the recorded call for COC(=O)C1C(=O)O[C@@H](c2ccc(OC)cc2OC)C1C(=O)OC (stereo not given in full) .
inactive

Hi, sorry to bother you, what did the test record for CC(CO)(CO)N1C(=O)C2C3C=CC(C3)C2C1=O (stereo not given) ?
inactive

# lookup: test call for CN1N=C(c2ccncc2)OC1c1ccc(Cl)cc1Cl (stereo not given)
inactive

Would you mind telling me which call this test gave CCOC(=O)/C(=C/c1ccc(N(C)C)cc1)N(CC)CC ?
inactive

Assay outcome for C=C(Br)CN(CC(=C)Br)C(C)=O : what was it?
inactive

----------
Tested on: HL-60
Procedure Details: NCI tumour cell line growth inhibition, 48 h
The source made the active and inactive calls. Cut-off read from the data, not from the text of the source: active = GI50 up to about 1.1 µM and inactive = higher.
// classify into y for active, n for inactive

# count of solved cases: 5
Compound: O=C(OCC12CC3CC(CC(C3)C1)C2)c1ccc(NCc2cc(O)ccc2O)cc1
Class Label: y

Compound: C=C(Br)CN(CC(=C)Br)C(C)=O
Class Label: n

Compound: CC(C)C1=CC2=C(C(=O)C1=O)C13CCCC(C)(C)C1CC2OC3=O (stereo unspecified)
Class Label: n

Compound: Cc1ccc2oc(=O)c(-c3ccccc3)nc2c1
Class Label: n

Compound: CCN(CC)CCNc1ccc(C)c2sc3ccc(O)cc3c(=O)c12
Class Label: y

# input for lookup
# lookup: test call for CSCCC(NC(=O)OCc1ccccc1)NC(=O)OCc1ccccc1
n

----------
System: Malme-3M
Procedure Details: NCI tumour cell line growth inhibition, 48 h
The source made the active and inactive calls. Cut-off read from the data, not from the text of the source: active = GI50 up to about 1.1 µM and inactive = higher.
Property Label: GI50

Compound: CC(C)(C)OC(=O)NCC(c1c[nH]c2ccc(Br)cc12)c1c[nH]c2ccc(Br)cc12
Meas Value: 18.3 µM (inactive)

Compound: BC(=O)NC(CC(C)C)C(=O)NC1c2ccsc2C(=O)C1O.CN(C)C (stereo unspecified)
Meas Value: > 100 µM (inactive)

Return reported GI50; argument: O=P(c1ccccc1)(c1ccccc1)C(NCc1ccccc1)c1ccc(F)cc1 (stereo unspecified)
17.9 µM (inactive)

Param item = O=C(O)c1cc(/N=N/c2ccc([N+](=O)[O-])cc2)ccc1O ; retrieve measured GI50.
42.6 µM (inactive)

Value lookup for GI50; key = COc1cc(/N=C\N(C)C)c2ncccc2c1
> 100 µM (inactive)

# query: GI50 of entry N#Cc1c(-c2ccccc2)c2c([nH]c1=O)-c1cc([N+](=O)[O-])ccc1CCC2
51.8 µM (inactive)

So what does the record say about GI50 for CC1NC(=O)C2=C1C(N)=NC(=O)C2 (stereo unspecified) ?
> 100 µM (inactive)

What value of measured GI50 is listed for COc1ccc(C2c3cc4c(cc3OC(N3CCOCC3)C2C)OCO4)cc1OC (stereo unspecified) ?
11.1 µM (inactive)

For the compound shown here, COC(=O)Cc1cc(=O)oc2c1C(=O)CCC2 , give the reported GI50.
> 100 µM (inactive)

// lookup GI50 for CCc1c(Cc2[nH]c(Cc3[nH]c(C=O)c(C)c3CC)c(CC)c2CC)[nH]c(C=O)c1C
> 100 µM (inactive)

# GI50 lookup, item O=C1NC(N2CCCC(CO)C2)=N/C1=C\c1ccc(O)cc1 (stereo unspecified)
> 100 µM (inactive)

Given the compound c1ccc2[nH]c3[nH]c4[nH]c5ccccc5[nH]c4[nH]c3[nH]c2c1 , what is its reported GI50?
> 100 µM (inactive)

Query: GI50; subject: CC(C)C1CCC/C=C/C=C/C=C/C=C/C(OC2OC(C)C(O)C(N)C2O)CC2OC(O)(CC(O)CC(O)C(O)CCC(=O)O1)CC(O)C2C(=O)O (stereo unspecified)
> 52.5 µM (inactive)

May I ask what GI50 has been recorded for CCCN(CCCN)/[N+]([O-])=N\O ?
> 100 µM (inactive)

Fill in the blank: the reported GI50 of CCC(CC)NC1=C(NC(C)=O)C(=O)c2ccccc2C1=O is ____.
45.4 µM (inactive)

For the compound O=C1[C@@H]2[C@@H](CN3CN(c4ccccc4)N=C(c4ccccc4)[C@@]23c2ccccc2)C(=O)N1c1ccccc1 , what GI50 is on record?
1.82 µM (inactive)

For the compound COC(=O)C1(F)C(=O)NC(=O)NC1O (stereo unspecified) , what GI50 is on record?
> 100 µM (inactive)

Can you look up the measured GI50 of C=C(Cl)C(Br)(CCl)CCC(Br)C(C)(C)Cl (stereo unspecified) for me?
2.83 µM (inactive)

Fill in: GI50 of CN=C(n1ccnc1)n1ccnc1 is ___
> 100 µM (inactive)

Would you kindly share the measured GI50 for c1csc(-c2cc(-c3cccs3)c(-c3cccs3)s2)c1 ?
62.2 µM (inactive)

State the recorded GI50 for this entry: COC(=O)C1C(=O)O[C@@H](c2ccc(OC)cc2OC)C1C(=O)OC (stereo partly specified)
> 100 µM (inactive)

Hello, the source for this data is ChEMBL document CHEMBL1201862, in case you need it.
